studyTarget: ST ERα (Panthera tigris, UniProt Z9XQL7S1Y6)
Construct: full-length ESR1 ORF (1788 bp, about 595 aa), codon-optimised, pcDNA3.1+, HEK293; residues S53, P76, T496, S585
protocolNotes: 3xERE luciferase reporter activation, HEK293
Format: cell-based
conditionNotes: read-out: EC50
experimentalEndpoint: EC50 (pM)

# molecule, experimentalEndpoint, valueMeasured
data = [
    ("C[C@]12CC[C@@H]3c4ccc(O)cc4CC[C@H]3[C@@H]1CC[C@@H]2O [E2, 17β-estradiol]", "EC50", 6.11),
]

---

studyTarget: ST ERα (Panthera tigris)
Construct: full-length ESR1 ORF (1788 bp, about 595 aa), codon-optimised, pcDNA3.1+, HEK293; residues S53, P76, T496, S585
protocolNotes: 3xERE luciferase reporter activation, HEK293
Assay type: cell-based
conditionNotes: read-out: ST ER⍺ / EC50
Readings of EC50 for the listed compounds
experimentalEndpoint: EC50

# smilesText, experimentalEndpoint, valueMeasured
rows = [
    ("O=c1c(-c2ccc(O)cc2)coc2cc(O)cc(O)c12", "EC50", "1890 nM"),
    ("O=c1oc2cc(O)ccc2c2oc3cc(O)ccc3c12", "EC50", "131 nM"),
]

---

Tested on: ST ERβ
Construct: gene ESR2; full-length ESR2 ORF (1653 bp, about 550 aa), codon-optimised, pcDNA3.1+, HEK293; residues S31, S40, V138, A147, E361, R433, E550
protocolNotes: 3xERE luciferase reporter activation, HEK293
Type: cell-based, Panthera tigris sumatrae
conditionNotes: agonist; 24 h, 37 °C; normalised to β-gal; read-out: EC50
pEC50: −log10 of the molar value.

# compound, pEC50
rows = [
    ("C[C@]12CC[C@@H]3c4ccc(O)cc4CC[C@H]3[C@@H]1CC[C@@H]2O [E2, 17β-estradiol]", 10.39),
]

---

studyTarget: SL ERβ (Panthera uncia, UniProt Z9GFH5XYU7)
Construct: full-length ESR2 ORF (1653 bp, about 550 aa), not codon-optimised, pcDNA3.1+, HEK293; residues S31, S40, I138, A147, G361, R433, Q550
protocolNotes: 3xERE luciferase reporter activation, HEK293
conditionNotes: agonist; 24 h, 37 °C; normalised to β-gal and maximal E2 activation; read-out: SL ER⍺ / EC50
pEC50: −log10 of the molar value.
Readings of pEC50 for the listed compounds

# compound, pEC50
rows = [
    ("O=c1c(-c2ccc(O)cc2)coc2cc(O)cc(O)c12 [GEN, genistein]", 6.54),
    ("O=c1oc2cc(O)ccc2c2oc3cc(O)ccc3c12 [COUM, coumestrol]", 7.59),
]
